- EXPERIMENTAL_TARGET: Akt1 (Homo sapiens, UniProt P31749)
- Sequence (P31749 whole entry): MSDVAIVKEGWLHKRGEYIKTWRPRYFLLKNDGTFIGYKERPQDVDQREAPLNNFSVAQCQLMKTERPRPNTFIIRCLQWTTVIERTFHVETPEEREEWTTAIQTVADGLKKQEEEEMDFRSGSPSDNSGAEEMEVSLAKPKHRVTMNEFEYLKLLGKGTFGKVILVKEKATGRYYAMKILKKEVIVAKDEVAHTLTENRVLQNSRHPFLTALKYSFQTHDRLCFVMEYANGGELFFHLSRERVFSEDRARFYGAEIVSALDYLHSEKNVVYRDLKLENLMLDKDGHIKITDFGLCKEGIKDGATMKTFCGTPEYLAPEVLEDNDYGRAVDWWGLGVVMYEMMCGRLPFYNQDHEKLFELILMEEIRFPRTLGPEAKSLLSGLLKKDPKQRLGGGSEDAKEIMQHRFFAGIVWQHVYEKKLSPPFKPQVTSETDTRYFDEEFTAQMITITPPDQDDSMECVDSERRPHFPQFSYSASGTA
- ASSAY_REMARKS: STK HTRF KinEASE activity-based assay (IC50)
- MEASUREMENT_PARAMETERS: biochemical activity based assay, log units
Classify as follows. Reported Log ratio IC50 [Akt] / IC50 [Akt], Akt1 / Akt2 greater than or equal to 0.1: y. Reported Log ratio IC50 [Akt] / IC50 [Akt], Akt1 / Akt2 below: n.

>>> assigned_class("C=CC(=O)Nc1ccc2[nH]c(=O)n(C3CCN(Cc4ccc(-c5ncc(C(=O)NC)cc5-c5ccccc5)cc4)CC3)c2c1")
"n"
>>> assigned_class("C=CC(=O)Nc1ccc2[nH]c(=O)n(C3CCN(Cc4ccc(-c5ncc(C(=O)Nc6cccnc6)cc5-c5ccccc5)cc4)CC3)c2c1")
"y"
>>> assigned_class("C=CC(=O)Nc1ccc2[nH]c(=O)n(C3CCN(Cc4ccc(-c5ncc(C(=O)Nc6cccc(N)c6)cc5-c5ccccc5)cc4)CC3)c2c1")
"y"
>>> assigned_class("C=CC(=O)Nc1ccc2[nH]c(=O)n(C3CCN(Cc4ccc(-c5ncc(C(=O)O)cc5-c5ccccc5)cc4)CC3)c2c1")
"n"
>>> assigned_class("C=CC(=O)Nc1ccc2[nH]c(=O)n(C3CCN(Cc4ccc(-c5ncc(C(=O)Nc6cnn(C)c6)cc5-c5ccccc5)cc4)CC3)c2c1")
"y"
>>> assigned_class("C=CC(=O)Nc1ccc2[nH]c(=O)n(C3CCN(Cc4ccc(-c5ncc(Cc6cnn(C)c6)cc5-c5ccccc5)cc4)CC3)c2c1")
"y"

*Q* Answer whether Log ratio IC50 [Akt] / IC50 [Akt], Akt1 / Akt2 of C=CC(=O)Nc1ccc2[nH]c(=O)n(C3CCN(Cc4ccc(-c5ncccc5-c5ccccc5)cc4)CC3)c2c1 is greater than or equal to 0.1.
*A* n

*Q* Identify whether the reported Log ratio IC50 [Akt] / IC50 [Akt], Akt1 / Akt2 of the following molecule is 0.1 or greater: C=CC(=O)Nc1ccc2[nH]c(=O)n(C3CCN(Cc4ccc(-c5ncc(Cc6cccnc6)cc5-c5ccccc5)cc4)CC3)c2c1
*A* y

*Q* Could you verify whether the entry C=CC(=O)Nc1ccc2[nH]c(=O)n(C3CCN(Cc4ccc(-c5ncc(CNCC(C)C)cc5-c5ccccc5)cc4)CC3)c2c1 shows Log ratio IC50 [Akt] / IC50 [Akt], Akt1 / Akt2 of no less than 0.1?
*A* y

====

Documented IC50 across a set of compounds
- EXPERIMENTAL_TARGET: Akt1 (Homo sapiens)
- ASSAY_REMARKS: STK HTRF KinEASE activity-based assay (IC50)
- MEASUREMENT_PARAMETERS: IC50 Akt1, HTRF, ATP at KM, 1 h preincubation
Provide only the numeric value, understood in nM.

The recorded IC50 with Akt1 (Homo sapiens) for C=CC(=O)Nc1ccc2[nH]c(=O)n(C3CCN(Cc4ccc(-c5ncc(CO)cc5-c5ccccc5)cc4)CC3)c2c1 [compound 3] was 186

====

- EXPERIMENTAL_TARGET: Akt2 (Homo sapiens)
- Sequence (P31751 whole entry): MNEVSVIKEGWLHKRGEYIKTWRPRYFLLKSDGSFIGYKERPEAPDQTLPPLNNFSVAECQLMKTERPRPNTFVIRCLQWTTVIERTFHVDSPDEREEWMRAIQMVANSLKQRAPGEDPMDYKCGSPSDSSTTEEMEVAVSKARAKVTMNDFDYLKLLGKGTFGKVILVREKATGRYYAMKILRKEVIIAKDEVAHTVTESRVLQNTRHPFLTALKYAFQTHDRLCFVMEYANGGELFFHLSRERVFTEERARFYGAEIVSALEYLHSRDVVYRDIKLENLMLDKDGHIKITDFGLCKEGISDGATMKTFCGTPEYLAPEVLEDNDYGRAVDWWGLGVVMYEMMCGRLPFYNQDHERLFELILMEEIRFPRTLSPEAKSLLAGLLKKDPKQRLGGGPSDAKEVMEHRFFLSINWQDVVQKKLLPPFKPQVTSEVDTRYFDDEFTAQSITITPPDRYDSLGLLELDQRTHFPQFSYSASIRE
- ASSAY_REMARKS: STK HTRF KinEASE activity-based assay (IC50)
- MEASUREMENT_PARAMETERS: HTRF IC50 Akt2, Mean, mean of replicates
Reported log10 of IC50 is given for each of the following molecules.
Lab note - IC50 converted to log10 from values in nM.

Assay Akt2 (Homo sapiens), sample C=CC(=O)Nc1ccc2[nH]c(=O)n(C3CCN(Cc4ccc(-c5ncc(C(=O)Nc6cccc(N)c6)cc5-c5ccccc5)cc4)CC3)c2c1 , log10 of IC50 read: 1.58

Let me check: C=CC(=O)Nc1ccc2[nH]c(=O)n(C3CCN(Cc4ccc(-c5ncc(C(=O)OC)cc5-c5ccccc5)cc4)CC3)c2c1 , system Akt2 (Homo sapiens), measured log10 of IC50 is 2.06
